# credit: paper PMC9851200

Tested on: SH-SY5Y cells
Experiment: AK (adenylate kinase) release ToxiLight cytotoxicity assay; further: reference of the scale not given here
Details: PKIS2 primary screening
Exercise: for every item that follows, state its recorded AK.
Answer with a bare number; do not write a unit.

Which value of AK has been reported for Cc1cccc(-c2cc(-c3c[nH]nc3-c3ccccn3)ccn2)c1 [UNC10225499A] in the records? 88.92

Now the compound COc1ccc(Nc2nccc(N3CCC(NC(=O)C(C)c4ccc(Cl)cc4)CC3)n2)cc1 (centres unmarked) [GSK1379812] 91.65

Further, for Cc1ccc(CC(=O)N2CCc3cc(-c4cn(C)c5ncnc(N)c45)ccc32)cc1 [UNC10225490A] ? 123.53

Same again, this time with CC(C)(CN)c1nc(-c2ccc(Cl)c(O)c2)c(-c2ccncc2)[nH]1.O=C(O)C(F)(F)F [UNC10225206B] 116.08

One more compound: Cl.Fc1ccccc1COc1ccc(Nc2ncnc3ccc(-c4nnc(C(F)(F)F)o4)cc23)cc1Cl [UNC10225422A] 104.09

Another compound to look at: c1ccc(-c2cc(-c3c[nH]nc3-c3ccccn3)ccn2)cc1 [UNC10225169A] 72.24

Same lookup for CSc1nn2c(=O)cc(N3CCOCC3)nc2n1Cc1cccc(C(F)(F)F)c1C [UNC10225417A] , please. 90.24

Also CCCCc1nn2ncccc2c1-c1ccnc(Nc2ccc(N3CCN(C)CC3)cc2)n1 [UNC10225453A] , if possible. 108.81

Let us now turn to Cc1ccc(NC(=O)Nc2ccccc2F)cc1-c1ccc(C(=O)Nc2ccncc2)cc1 [UNC10225398A] 135.60

Would you mind doing COc1ccc(COc2cc(-n3cnc4ccccc43)sc2C(N)=O)cc1 [UNC10225127A] as well? 69.30

// same read-out, input: Cc1ccc(S(=O)(=O)Nc2ccc(Nc3nccc(Nc4cccc5[nH]ncc45)n3)cc2)cc1 [GSK581271] 89.43

Try this compound next: O=C(Nc1n[nH]c2cc(-c3cccc(F)c3F)ccc12)C1CC1 [SB-733894] 80.72

Same lookup for Cc1ccc(F)c(C(=O)Nc2cccc(-c3nn4ccccc4c3-c3ccnc(Nc4cccc(F)c4)n3)c2)c1F [UNC10225076A] , please. 111.27

Repeat with COc1ccc(NC(=O)c2ccc(-c3cc(-c4nnc(C)o4)ccc3C)cc2)cc1 [UNC10225475A] 97.70
